Data credit: paper PMC7990037

- test target: purified mouse ENPP1 (Mus musculus)
- Sequence (P06802 85-906 limits assumed): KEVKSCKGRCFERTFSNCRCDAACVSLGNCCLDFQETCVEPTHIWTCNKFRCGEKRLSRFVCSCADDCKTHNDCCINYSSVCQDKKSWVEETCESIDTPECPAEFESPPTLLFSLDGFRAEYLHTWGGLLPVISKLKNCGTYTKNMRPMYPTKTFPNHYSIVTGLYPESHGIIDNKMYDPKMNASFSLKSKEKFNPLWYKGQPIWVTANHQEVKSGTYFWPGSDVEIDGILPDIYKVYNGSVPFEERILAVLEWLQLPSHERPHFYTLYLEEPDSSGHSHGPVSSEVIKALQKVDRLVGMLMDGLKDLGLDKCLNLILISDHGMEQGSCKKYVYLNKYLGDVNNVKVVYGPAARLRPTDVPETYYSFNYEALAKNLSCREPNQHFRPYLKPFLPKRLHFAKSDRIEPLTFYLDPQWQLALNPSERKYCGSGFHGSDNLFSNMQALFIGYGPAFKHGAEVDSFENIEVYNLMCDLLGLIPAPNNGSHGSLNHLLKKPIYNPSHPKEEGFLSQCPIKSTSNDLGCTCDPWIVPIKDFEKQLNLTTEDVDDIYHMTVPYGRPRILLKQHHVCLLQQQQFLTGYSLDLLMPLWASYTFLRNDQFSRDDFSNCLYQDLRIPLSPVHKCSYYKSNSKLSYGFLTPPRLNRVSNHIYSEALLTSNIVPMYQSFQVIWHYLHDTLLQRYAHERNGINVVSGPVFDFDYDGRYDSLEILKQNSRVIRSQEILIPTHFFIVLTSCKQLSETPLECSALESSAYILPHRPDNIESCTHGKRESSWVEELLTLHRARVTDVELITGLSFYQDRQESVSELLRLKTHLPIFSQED
- protocol details: 32P-cGAMP degradation TLC assay
measured quantity: Ki (nM)
Express it in nM; write the number only.

For this compound ( COc1cccc2c(N3CCC(CCP(=O)(O)O)CC3)ncnc12 ), measured Ki is 16

====

- test target: ENPP2 (Homo sapiens)
- protocol details: ENPP2 inhibition assay
- Assay type: biochemical
measured quantity: Ki

For this compound ( COc1cc2ncnc(N3CCC(CCP(=O)(O)O)CC3)c2cc1OC [STF-1084] ), measured Ki is 5.5 µM

====

- protocol details: Liver microsome stability, mouse
- condition context: liver microsomes
Would you mind telling me the reported half-life of each entry?

For this molecule ( COc1cc2ncnc(N3CCC(CCP(=O)(O)O)CC3)c2cc1OC ), measured half-life is > 2.65 h

For this molecule ( COc1cccc2c(N3CCC(CCP(=O)(O)O)CC3)ncnc12 ), measured half-life is > 2.65 h
